Test system: Cullin-3 (CUL3) neddylation
protocol: AlphaLISA assay for Cullin-3 (CUL3) neddylation in TF 1 cells
Assay type: cell-based
measurementContext: Homo sapiens, TF-1, 3 h, 3 hours treatment
pIC50: −log10 of the molar value.
measuredEndpoint: pIC50

GET /values?readout=pIC50&system=Cullin-3 (CUL3) neddylation&item= `CCN1C(=O)[C@@H](NC(=O)c2cccc(C(F)(F)F)c2)[C@@H](c2ccc(F)cc2)c2c(C(=O)N(CC#N)CCN(C)C)nn(C3CCOCC3)c21`
≥ 7.00

Same for C#CC(=O)N[C@H](C)c1nn(-c2ccccc2)c2c1[C@H](c1ccc(F)cc1)[C@H](NC(=O)c1cccc(C(F)(F)F)c1)C(=O)N2CC (mixture of isomers)
≥ 7.00

Same for `CCN1C(=O)[C@@H](NC(=O)c2cccc(C(F)(F)F)c2)[C@@H](c2ccc(F)cc2)c2c(C(=O)N3CCC[C@H]3C#N)nn(-c3cccc(OCCCN4CCC5(CC4)COC5)c3)c21`
≥ 7.00

Same for `CCN1C(=O)[C@@H](NC(=O)c2nc(C(F)(F)F)cs2)[C@@H](c2ccc(F)cc2)c2c(C(=O)N3CCC[C@H]3C#N)nn(C3CCOCC3)c21`
≥ 7.00

Provide pIC50 for all items below, preserving their order.
1. CCN1C(=O)[C@@H](NC(=O)c2cccc(C(F)(F)F)c2)[C@@H](c2ccc(F)cc2)c2c(NC(=O)C3=CCC3)nn(-c3ccccc3)c21 (racemic)
2. CCN1C(=O)[C@@H](NC(=O)c2cccc(C(F)(F)F)c2)[C@@H](c2ccc(F)cc2)c2c(C(=O)N(C)[C@H](C#N)CCN(C)C3COC3)nn(-c3ccccc3)c21
3. C=CS(=O)(=O)NCc1nn(-c2ccccc2)c2c1[C@H](c1ccc(F)cc1)[C@H](NC(=O)c1cccc(C(F)(F)F)c1)C(=O)N2CC (racemic)
4. CCN1C(=O)[C@H](NC(=O)c2cccc(C(F)(F)F)c2)[C@H](c2ccc(F)cc2)c2c(C(=O)N(CC#N)C3COC3)nn(-c3ccccc3)c21 (racemic)
5. C=C(CN1CC(O)C1)C(=O)NCc1nn(-c2ccccc2)c2c1[C@H](c1ccc(F)cc1)[C@H](NC(=O)c1cccc(C(F)(F)F)c1)C(=O)N2CC
6. CCN1C(=O)[C@@H](NC(=O)c2cccc(C(F)(F)F)c2)[C@@H](c2ccc(F)cc2)c2c([C@H](C)NC#N)nn(-c3ccccc3)c21
7. CCN1C(=O)[C@@H](NC(=O)c2cccc(C(F)(F)F)c2)[C@@H](c2ccc(F)cc2)c2c(CN(C)C(=O)/C=C/C(=O)OC)nn(-c3ccccc3)c21 (racemic)

6.00 to 7.00
≥ 7.00
≥ 7.00
6.00 to 7.00
≥ 7.00
≥ 7.00
≥ 7.00

---

testTarget: DCN1 (DCUND1) protein PONY domain (Homo sapiens (Human))
Sequence (Q96GG9 60-248): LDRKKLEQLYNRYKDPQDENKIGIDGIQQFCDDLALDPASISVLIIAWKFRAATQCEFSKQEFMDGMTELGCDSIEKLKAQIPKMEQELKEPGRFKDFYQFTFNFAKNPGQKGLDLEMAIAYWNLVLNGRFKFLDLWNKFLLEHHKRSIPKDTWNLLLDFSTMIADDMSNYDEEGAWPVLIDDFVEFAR
protocol: TR-FRET assay, DCN1 binding with FAM-labeled probe
measurementContext: 24 hr after treatment with compound; read-out: TR FRET IC50 24 hr
Procedure: A TR-FRET assay was performed to evaluate the ability of the compounds to bind the DCN-1 protein. The TR-FRET assay was designed following the Scott et al. protocol (Scott et al., Nat Chem Biol. 2017 August; 13(8): 850-857. Doi:10.1038/nchembio.2386). […] The TR-FRET ratio between Tb-DCN1 and the FAM-labeled probe was measured in a 384-well opti-plate (Perkin Elmer) using a plate reader (BMG) at 1, 5, and 24 hrs after treatment with compound (final DMSO concentration of 0.1%).
pIC50: −log10 of the molar value.
Could you please report measured pIC50 for the items listed next?

Reference set, count: 2
GET /values?readout=pIC50&system=DCN1 (DCUND1) protein PONY domain (Homo sapiens (Human))&item= CCN1C(=O)[C@@H](NC(=O)c2cccc(C(F)(F)F)c2)[C@@H](c2ccc(F)cc2)c2c(C(=O)N(C)[C@@H](C#N)CCN(C)C3COC3)nn(-c3ccccc3)c21 (single isomer, unassigned)
≥ 6.70

Same for `CCN1C(=O)[C@@H](NC(=O)c2cccc(C(F)(F)F)c2)[C@@H](C2CC2)c2c(C(=O)N3CCOC[C@@H]3C#N)nn(C3CCOCC3)c21`
6.00 to 6.70

Provide pIC50 for all items below, preserving their order.
1. CCN1C(=O)[C@@H](NC(=O)C2CC2C(F)(F)F)[C@@H](C2CC2)c2c(C(=O)N3[C@H](C#N)C[C@H]4C[C@H]43)nn(C3CCOCC3)c21 (some centres unmarked)
2. CCN1C(=O)[C@@H](NC(=O)c2cccc(C(F)(F)F)c2)[C@@H](c2ccc(F)cc2)c2c([C@@H](CO)NC#N)nn(-c3ccccc3)c21
3. CCN1C(=O)[C@@H](NC(=O)c2cccc(C(F)(F)F)c2)[C@@H](c2ccc(F)cc2)c2c(C(=O)N(CC#N)CC#N)nn(-c3ccccc3)c21

["5.52 to 6.00", "≥ 6.70", "≥ 6.70"]

---

testTarget: DCN1 (DCUND1) protein PONY domain (Homo sapiens (Human))
protocol: Off-rate measurement of reversible covalent molecules (jump dilution TR-FRET with Cy5 probe)
Assay type: binding
measurementContext: jump dilution, Cy5 covalent probe 150 nM, TR-FRET
Could you please report measured koff for the items listed next?
Numbers only, in s⁻¹.

Reference set, count: 2
Please report the recorded koff for CCN1C(=O)[C@@H](NC(=O)c2cccc(C(F)(F)F)c2)[C@@H](C2CC2)c2c(C(=O)N3CS(=O)(=O)C[C@H]3C#N)nn(C3CCOCC3)c21 [Compound I-617] .
0.000251

Same for CCN1C(=O)[C@@H](NC(=O)c2cccc(C(F)(F)F)c2)[C@@H](C2CC2)c2c(C(=O)N3CCS(=O)(=O)C[C@H]3C#N)nn(C3CCOCC3)c21 (mixture of isomers) [Compound I-379]
0.000211

Attention now turns to another entry.
Please report the recorded koff for CCN1C(=O)[C@@H](NC(=O)c2cccc(C(F)(F)F)c2)[C@@H](C2CC2)c2c(C(=O)N3C[C@H](NC)C[C@H]3C#N)nn(C3CCOCC3)c21 [Compound I-425] .
0.000219

---

System: Cullin-3 (CUL3) neddylation
protocol: AlphaLISA assay for Cullin-3 (CUL3) neddylation in TF 1 cells
Type: cell-based
measurementContext: Homo sapiens, TF-1, 3 h, 3 hours treatment
measuredEndpoint: IC50

Provide IC50 for all items below, preserving their order.
1. CCN1C(=O)[C@H](NC(=O)c2cccc(C(F)(F)F)c2)[C@H](c2ccc(F)cc2)c2c(C(=O)N(CC#N)CC(=O)OC)nn(-c3ccccc3)c21 (stereo in doubt) [Compound I-406]
2. CCN1C(=O)[C@@H](NC(=O)c2cccc(C(F)(F)F)c2)[C@@H](c2ccc(F)cc2)c2c(C(=O)N3CCC[C@H]3C#N)nn(-c3cccc(OCCCN(C)C4COC4)c3)c21 [Compound I-335]
3. CCN1C(=O)[C@@H](NC(=O)c2cccc3[nH]ncc23)[C@@H](C2CC2)c2c(C(=O)N3[C@H](C#N)C[C@H]4C[C@H]43)nn(C3CCOCC3)c21 [Compound I-602]
4. CCN1C(=O)[C@@H](NC(=O)c2cccc(C(F)(F)F)c2)[C@@H](c2ccc(F)cc2)c2c(C(=O)N3CC[C@H](F)[C@H]3C#N)nn(C3CCOCC3)c21 [Compound I-694]
5. CCN1C(=O)[C@@H](NC(=O)c2cccc(C(F)(F)F)c2)[C@@H](c2ccc(F)cc2)c2c(CNC/C=C/C(=O)OC)nn(-c3ccccc3)c21 (racemic) [Compound I-127]
6. CCCn1nc(C(=O)N2CCC[C@H]2C#N)c2c1N(CC)C(=O)[C@@H](NC(=O)c1cccc(C(F)(F)F)c1)[C@H]2C1CC1 [Compound I-467]
7. CCN1C(=O)[C@@H](NC(=O)c2cccc(C(F)(F)F)c2)[C@@H](c2ccc(F)cc2)c2c(CN(C)C/C=C/C(=O)N(C)C)nn(-c3ccccc3)c21 [Compound I-638]

["100 to 1000 nM", "≤ 100 nM", "> 1000 nM", "≤ 100 nM", "≤ 100 nM", "100 to 1000 nM", "> 1000 nM"]

---

testTarget: DCN1 (DCUND1) protein PONY domain (Homo sapiens (Human))
protocol: TR-FRET assay, DCN1 binding with FAM-labeled probe
measurementContext: 24 hr after treatment with compound; read-out: TR FRET IC50 24 hr
measuredEndpoint: IC50

Reference set, count: 3
Please report the recorded IC50 for `CCN1C(=O)[C@@H](NC(=O)c2ccc3scnc3c2)[C@@H](C2CC2)c2c(C(=O)N3[C@H](C#N)C[C@H]4C[C@H]43)nn(C3CCOCC3)c21` .
200 to 1000 nM

Same for C=C(C)C(=O)N(C)Cc1nn(-c2ccccc2)c2c1[C@H](c1ccc(F)cc1)[C@H](NC(=O)c1cccc(C(F)(F)F)c1)C(=O)N2CC (racemic)
200 to 1000 nM

Same for CCN1C(=O)[C@@H](NC(=O)c2cccc(C(F)(F)F)c2)[C@@H](C)c2c(C(=O)N3[C@H](C#N)C[C@H]4C[C@H]43)nn(C3CCOCC3)c21 (mixture of isomers)
≤ 200 nM

Provide IC50 for all items below, preserving their order.
1. CCN1C(=O)[C@H](NC(=O)c2cccc(C(F)(F)F)c2)[C@H](c2ccc(F)cc2)c2c(C(=O)N[C@@H](C)C#N)nn(-c3ccccc3)c21
2. CCN1C(=O)[C@@H](NC(=O)c2nccc(C(F)(F)F)n2)[C@@H](c2ccc(F)cc2)c2c(CNC(=O)/C=C/C(=O)OC(C)(C)C)nn(-c3ccccc3)c21
3. CCN1C(=O)[C@H](NC(=O)c2cccc(C(F)(F)F)c2)[C@H](C2CC2)c2c(C(=O)N3CCC[C@H]3C#N)nn(C3CCOCC3)c21
4. CC#CC(=O)N(C)Cc1nn(-c2ccccc2)c2c1[C@H](c1ccc(F)cc1)[C@H](NC(=O)c1cccc(C(F)(F)F)c1)C(=O)N2CC (racemic)

["1000 to 3000 nM", "≤ 200 nM", "1000 to 3000 nM", "> 3000 nM"]

Data credit: patent US20250163057A1
